Provenance of the data: patent US20240425464A1

System: C. albicans ATCC MYA-1237 (F)
method notes: MIC determination by in vitro antifungal assay
Format: cell-based, Candida albicans
stated conditions: Candida albicans, strain F = C. albicans ATCC MYA-1237(R); read-out: MIC
measure name: MIC (µg/mL)
Your answer should be a plain number; it is taken to be in µg/mL.

// lookup MIC for `COc1ccc(NNC(=O)c2nc(F)ccc2F)cc1` 0.98

// lookup MIC for `O=C(NNc1ccc(F)cc1)c1ccc(Br)cn1` 7.8

// lookup MIC for `O=C(NNc1cc(Cl)cc(Cl)c1)c1cnccn1` 1.95

====

System: C. albicans ATCC MYA-1003 (G)
method notes: MIC determination by in vitro antifungal assay
Type: cell-based, Candida albicans
stated conditions: strain G = C. albicans ATCC MYA-1063(R) (footnote); MYA-1003 in text
measure name: MIC (μg/mL^−1)
Your answer should be a plain number; it is taken to be in μg/mL^−1.

// lookup MIC for `O=C(NNc1ccc(F)cc1)c1ccc(F)cn1` 1.95

// lookup MIC for `O=C(NNc1cccc(F)c1)c1ccc(F)cn1` 1.95

// lookup MIC for `COc1ccc(NNC(=O)c2ccc(F)cn2)cc1` 0.49

// lookup MIC for `O=C(NNc1ccc(Cl)cc1)c1ncc(F)cc1F` 1.95

// lookup MIC for `O=C(NNc1cccc(F)c1)c1ccc(F)cc1F` 1.95

// lookup MIC for `O=C(NNc1cccc(F)c1)c1ccc(Br)cn1` 0.98

// lookup MIC for `O=C(NNc1ccc(Cl)cc1)c1ccc(F)cn1` 0.98

====

System: C. auris AR Bank #381
method notes: MIC determination by in vitro antifungal assay
Assay type: cell-based, Candida auris
stated conditions: Candidozyma auris; C. auris AR Bank # 381 (Table 2B); read-out: MIC
Experimental: The antifungal agent amphotericin B (AmB) was purchased from VWR (Radnor PA, USA). AmB was dissolved in DMSO at a final concentration of 5 mg/mL and was stored at −20° C., protected from light. Candida albicans American Type Culture Collection (ATCC) 10231 (strain A), C. albicans ATCC 64124 (B), and C. albicans ATCC MYA-2876 (C) were obtained from Utah State University. […]
measure name: MIC

// lookup MIC for `O=C(NNc1cc(Cl)cc(Cl)c1)c1ccc(F)cc1F` > 31.3 µg/mL

// lookup MIC for `O=C(NNc1cccc(Cl)c1)c1ccc(F)cc1F` 3.9 µg/mL

// lookup MIC for `O=C(NNc1ccc(F)cc1)c1ncc(F)cc1F` 1.95 µg/mL

// lookup MIC for `O=C(NNc1ccc(F)cc1F)c1ccc(F)cn1` 1.95 µg/mL

// lookup MIC for `O=C(NNc1ccc(F)cc1F)c1nc(F)ccc1F` 1.95 µg/mL

// lookup MIC for `O=C(NNc1ccc(F)cc1)c1cccc(F)n1` 0.98 µg/mL

// lookup MIC for `COc1cccc(NNC(=O)c2cccc(F)n2)c1` 0.98 µg/mL

// lookup MIC for `O=C(NNc1ccc(F)cc1F)c1ncc(F)cc1F` 3.9 µg/mL

====

Tested on: Aspergillus flavus ATCC MYA-3631 (O)
method notes: MIC determination by in vitro antifungal assay
Format: cell-based
stated conditions: Aspergillus flavus; strain O = A. flavus ATCC MYA-3631; read-out: MIC
measure name: MIC

// lookup MIC for `O=C(NNc1ccc(F)cc1)c1ccc(F)cc1F` > 31.3 µg/mL

// lookup MIC for `O=C(NNc1cc(Cl)cc(Cl)c1)c1ccccn1` > 31.3 µg/mL

// lookup MIC for `O=C(NNc1ccc(F)cc1F)c1ccc(F)cc1F` > 31.3 µg/mL

// lookup MIC for `O=C(NNc1ccc(F)cc1F)c1ccc(F)cn1` 15.6 µg/mL

// lookup MIC for `COc1ccc(NNC(=O)c2cccc(Br)n2)cc1` > 31.3 µg/mL

// lookup MIC for `O=C(NNc1ccc(F)cc1F)c1cnccn1` 7.8 µg/mL

// lookup MIC for `O=C(NNc1cc(Cl)cc(Cl)c1)c1ccc(F)cc1F` > 31.3 µg/mL

// lookup MIC for `O=C(NNc1cc(F)cc(F)c1)c1cnccn1` 3.9 µg/mL

// lookup MIC for `O=C(NNc1ccc(F)cc1F)c1cccc(Br)n1` > 31.3 µg/mL

// lookup MIC for `COc1ccc(NNC(=O)c2ncc(F)cc2F)cc1` > 31.3 µg/mL

// lookup MIC for `O=C(NNc1cccc(Cl)c1)c1ccc(F)cc1F` > 31.3 µg/mL

// lookup MIC for `O=C(NNc1ccc(F)cc1)c1cccc(F)n1` 7.8 µg/mL

// lookup MIC for `COc1ccc(NNC(=O)c2ccc(F)cc2F)cc1` > 31.3 µg/mL

// lookup MIC for `O=C(NNc1ccc(F)cc1F)c1ncc(F)cc1F` > 31.3 µg/mL

// lookup MIC for `O=C(NNc1ccc(F)cc1)c1ncc(F)cc1F` 7.8 µg/mL

// lookup MIC for `COc1ccc(NNC(=O)c2cccc(F)n2)cc1` > 31.3 µg/mL

// lookup MIC for `O=C(NNc1ccc(F)cc1)c1cnccn1` 15.6 µg/mL

// lookup MIC for `COc1ccc(NNC(=O)c2ccccn2)cc1` > 31.3 µg/mL

// lookup MIC for `O=C(NNc1cc(Cl)cc(Cl)c1)c1cnccn1` > 31.3 µg/mL

====

Test system: C. albicans ATCC MYA-1237 (F)
method notes: MIC determination by in vitro antifungal assay
Type: cell-based, Candida albicans
stated conditions: Candida albicans, strain F = C. albicans ATCC MYA-1237(R); read-out: MIC
measure name: MIC (mg/L)
Your answer should be a plain number; it is taken to be in mg/L.

// lookup MIC for `O=C(NNc1ccc(F)cc1F)c1ncc(F)cc1F` 3.9

// lookup MIC for `O=C(NNc1ccc(F)cc1)c1cccc(F)n1` 1.95

// lookup MIC for `O=C(NNc1ccc(F)cc1F)c1ccc(Br)cn1` 1.95

// lookup MIC for `O=C(NNc1ccc(F)cc1)c1ccccn1` 1.95

// lookup MIC for `O=C(NNc1cc(F)ccc1F)c1ccc(F)cc1F` 31.3

// lookup MIC for `O=C(NNc1ccc(F)cc1F)c1cccc(Br)n1` 0.98

// lookup MIC for `COc1ccc(NNC(=O)c2ncc(F)cc2F)cc1` 0.98

====

Test system: Aspergillus terreus ATCC MYA-3633 (N)
method notes: MIC determination by in vitro antifungal assay
Assay type: cell-based
stated conditions: Aspergillus terreus, strain N = A. terreus ATCC MYA-3633; read-out: MIC
Threshold 4 µg/mL. MIC below it: class 1. MIC at it or above: class 0.

I wonder whether `O=C(NNc1cc(F)ccc1F)c1cnccn1` has MIC below 4 µg/mL. Can you tell? class 1

I wonder whether `O=C(NNc1ccc(F)cc1)c1nc(F)ccc1F` has MIC below 4 µg/mL. Can you tell? class 1

I wonder whether `O=C(NNc1ccc(F)cc1)c1ccccn1` has MIC below 4 µg/mL. Can you tell? class 1

I wonder whether `O=C(NNc1cc(F)cc(F)c1)c1ccccn1` has MIC below 4 µg/mL. Can you tell? class 1

I wonder whether `O=C(NNc1cccc(Cl)c1)c1ccc(F)cc1F` has MIC below 4 µg/mL. Can you tell? class 0

I wonder whether `COc1cccc(NNC(=O)c2ncc(F)cc2F)c1` has MIC below 4 µg/mL. Can you tell? class 0

I wonder whether `O=C(NNc1cc(F)ccc1F)c1ccccn1` has MIC below 4 µg/mL. Can you tell? class 1

I wonder whether `O=C(NNc1cc(F)ccc1F)c1ccc(F)cc1F` has MIC below 4 µg/mL. Can you tell? class 0

I wonder whether `O=C(NNc1ccc(F)cc1)c1cnccn1` has MIC below 4 µg/mL. Can you tell? class 1

I wonder whether `O=C(NNc1cc(Cl)cc(Cl)c1)c1ccccn1` has MIC below 4 µg/mL. Can you tell? class 1

I wonder whether `COc1ccc(NNC(=O)c2ncc(F)cc2F)cc1` has MIC below 4 µg/mL. Can you tell? class 0

I wonder whether `COc1cccc(NNC(=O)c2nc(F)ccc2F)c1` has MIC below 4 µg/mL. Can you tell? class 0

I wonder whether `COc1cccc(NNC(=O)c2cnccn2)c1` has MIC below 4 µg/mL. Can you tell? class 1

I wonder whether `COc1ccc(NNC(=O)c2cccc(Br)n2)cc1` has MIC below 4 µg/mL. Can you tell? class 0
